Attribute: pIC50
Biological target: HCV polymerase (Hepatitis C virus genotype 1b, UniProt Q9WMX2)
pIC50 field: float, defined as -log10 of concentration (mol/L).

{"Molecule": "COc1cc(S(=O)(=O)N2CC(=O)N(c3cc(C#CC(C)(C)C)sc3C(=O)O)[C@H](C3CCCCC3)C2)ccc1F [Compound 283]", "Subject of test": "HCV polymerase (Hepatitis C virus genotype 1b, UniProt Q9WMX2)", "pIC50": 8.40}

Prompt: Notebook: pull reported pIC50 for HCV polymerase (Hepatitis C virus genotype 1b, UniProt Q9WMX2), entry O=C(O)c1sc(-c2ccccc2)cc1N1C(=O)CN(S(=O)(=O)C2CCCC2)CC1C1CCCCC1 (stereo not drawn) [Compound 42]
Completion: 6.83

Prompt: Notebook: pull reported pIC50 for HCV polymerase (Hepatitis C virus genotype 1b, UniProt Q9WMX2), entry O=C(O)c1sc(-c2ccccc2)cc1N1C(=O)CN(S(=O)(=O)c2ccc(N3CCN4CCCC4C3)nc2)C[C@H]1C1CCCCC1 (stereo partly drawn) [Compound 157]
Completion: 9.00

Prompt: Notebook: pull reported pIC50 for HCV polymerase (Hepatitis C virus genotype 1b, UniProt Q9WMX2), entry O=C(O)c1sc(-c2ccccc2)cc1N1C(=O)CN(S(=O)(=O)c2ccc(N3CCSCC3)nc2)CC1C1CCCCC1 (stereo not drawn) [Compound 79]
Completion: 8.40

Prompt: Notebook: pull reported pIC50 for HCV polymerase (Hepatitis C virus genotype 1b, UniProt Q9WMX2), entry O=C(O)c1sc(-c2ccc(F)cc2)cc1N1C(=O)CN(S(=O)(=O)c2ccc(N3CC[C@@H](F)C3)nc2)C[C@H]1C1CCCCC1 [Compound 280]
Completion: 9.00

Prompt: Notebook: pull reported pIC50 for HCV polymerase (Hepatitis C virus genotype 1b, UniProt Q9WMX2), entry COc1ccncc1-c1ccc(S(=O)(=O)N2CC(=O)N(c3cc(-c4ccccc4)sc3C(=O)O)[C@H](C3CCCCC3)C2)cn1 [Compound 204]
Completion: 8.70

Prompt: Notebook: pull reported pIC50 for HCV polymerase (Hepatitis C virus genotype 1b, UniProt Q9WMX2), entry CC(C)(C)C#Cc1cc(N2C(=O)C(CCCO)(CCCO)OC[C@H]2C2CCCCC2)c(C(=O)O)s1 [Compound 115]
Completion: 8.40

Prompt: Notebook: pull reported pIC50 for HCV polymerase (Hepatitis C virus genotype 1b, UniProt Q9WMX2), entry O=C(O)c1sc(-c2ccccc2)cc1N1C(=O)CN(S(=O)(=O)c2ccc(N(CCO)CCO)nc2)CC1C1CCCCC1 (stereo not drawn) [Compound 83]
Completion: 8.52

Prompt: Notebook: pull reported pIC50 for HCV polymerase (Hepatitis C virus genotype 1b, UniProt Q9WMX2), entry C[C@@H]1CN(c2ccc(S(=O)(=O)N3CC(=O)N(c4cc(-c5ccccc5)sc4C(=O)O)[C@H](C4CCCCC4)C3)cn2)C[C@H](C)O1 [Compound 167]
Completion: 8.46

Prompt: Notebook: pull reported pIC50 for HCV polymerase (Hepatitis C virus genotype 1b, UniProt Q9WMX2), entry CC(C)(C)C#Cc1cc(N2C(=O)CCCC2C2CCCCC2)c(C(=O)O)s1 (stereo not drawn) [Compound 19]
Completion: 7.82

Prompt: Notebook: pull reported pIC50 for HCV polymerase (Hepatitis C virus genotype 1b, UniProt Q9WMX2), entry O=C(O)c1sc(-c2ccc(F)cc2)cc1N1C(=O)CN(S(=O)(=O)c2ccc(N3CCCOCC3)nc2)C[C@H]1C1CCCCC1 [Compound 186]
Completion: 9.00

Prompt: Notebook: pull reported pIC50 for HCV polymerase (Hepatitis C virus genotype 1b, UniProt Q9WMX2), entry C[C@@H]1CCCN1c1ccc(S(=O)(=O)N2CC(=O)N(c3cc(-c4ccc(F)cc4)sc3C(=O)O)[C@H](C3CCCCC3)C2)cn1 [Compound 185]
Completion: 9.00

Prompt: Notebook: pull reported pIC50 for HCV polymerase (Hepatitis C virus genotype 1b, UniProt Q9WMX2), entry CC(C)Nc1ccc(S(=O)(=O)N2CC(=O)N(c3cc(-c4ccccc4)sc3C(=O)O)C(C3CCCCC3)C2)cn1 (stereo not drawn) [Compound 85]
Completion: 8.70

Prompt: Notebook: pull reported pIC50 for HCV polymerase (Hepatitis C virus genotype 1b, UniProt Q9WMX2), entry O=C(O)c1sc(-c2ccccc2)cc1N1C(=O)CN(S(=O)(=O)c2ccccc2F)CC1C1CCCCC1 (stereo not drawn) [Compound 40]
Completion: 7.89

Prompt: Notebook: pull reported pIC50 for HCV polymerase (Hepatitis C virus genotype 1b, UniProt Q9WMX2), entry COc1ccc(S(=O)(=O)N2CC(=O)N(c3cc(-c4ccccc4)sc3C(=O)O)C(C3CCCCC3)C2)cc1 (stereo not drawn) [Compound 103]
Completion: 8.70

Prompt: Notebook: pull reported pIC50 for HCV polymerase (Hepatitis C virus genotype 1b, UniProt Q9WMX2), entry COCCNc1ccc(S(=O)(=O)N2CC(=O)N(c3cc(-c4ccccc4)sc3C(=O)O)C(C3CCCCC3)C2)cn1 (stereo not drawn) [Compound 78]
Completion: 8.30

Data provenance is patent US9498483B2.
